Task for the reader: assign each of the following molecules its reported pIC50.
Test system: Platelet
protocolDescription: Inhibition of ADP-induced platelet aggregation in human platelet rich plasma by in-vitro light transmission aggregometry assay
Format: functional
conditionNotes: platelet
Value format note: pIC50 is -log10 of concentration (mol/L); just state the number.

Field pIC50 (Platelet), entry CCOC(=O)N1CCN(C(=O)[C@H](CCC(=O)O)NC(=O)c2cc([C@H]3C[C@@H]3COC)nc(-c3ccccc3)n2)CC1 (racemic) : 6.72

# pIC50 measured on Platelet for item `CCOC(=O)N1CCN(C(=O)[C@H](CCC(=O)O)NC(=O)c2cc([C@H]3C[C@@H]3COC)nc(-c3ccccc3)n2)CC1` = 7.06

Given the molecule `CCCCOC(=O)N1CCN(C(=O)[C@H](CCC(=O)O)NC(=O)c2cc([C@H]3C[C@@H]3COC)nc(-c3ccccc3)n2)CC1` and test system Platelet, the measured pIC50 is 7.51
